assay: chemical genetic growth profiling, strain panel (AID 1159580);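 also: tested at 20 µM; growth read once vehicle control cultures reached saturation at 30 °C; 1 = growth at the plate median or of vehicle wells; lower values mean less growth of the strain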; conditions: S. cerevisiae deletion strains, growth OD, locus YOL136C, strain PFK27
Screen size: about 5,500 compounds; about 2,000 (36%) were called active. Inconclusive results (about 18%) are left out. Rule as the data show it: active = normalized growth mostly below about 0.91 (no sharp cut-off); inconclusive = no clear call, values can overlap the other calls; inactive = mostly above about 0.92. The list shows a part of the results.
Choose the fitting class; nothing outside true (1) = active, false (0) = inactive is accepted.

Worked examples, 4 compounds total:
>>> group("Cc1cc(C(=O)O/N=C(/N)c2ccc(C(C)(C)C)cc2)no1")
"false (0)"
>>> group("Clc1ccc(-c2noc(CSC3=NCCN3)n2)cc1")
"false (0)"
>>> group("CCOC(=O)c1c(N=Cc2cc(Br)c(Br)cc2O)sc2c1CCCC2")
"true (1)"
>>> group("COc1cc(C(=O)Oc2c(Cl)cc(Cl)cc2C=Nc2ccc([N+](=O)[O-])cc2C#N)cc(OC)c1OC")
"true (1)"

// next entry
Task item: For "COc1cc(N=Cc2cc(Cl)cc(Cl)c2OS(=O)(=O)c2ccc(C)cc2)c(OC)cc1Cl" , which call appears in the assay record?
Reply: false (0)

----------
assay: chemical genetic growth profiling, strain panel (AID 1159580); settings: S. cerevisiae deletion strains, growth OD, locus YNL128W, strain TEP1, active compounds read low
Out of some 5,500 compounds screened, about 2,000 (36%) were called active. Another 18% or so got no clear call; they are omitted. The list shows a part of the results.
normalized growth by entry:
Lab note: record the figure alone, no unit after it.

Below, 6 molecules whose answers are already recorded.
>>> recorded_result("CC1(C)CCC(C(C)(C)O)CC1")
0.99
>>> recorded_result("CCOc1ccc2c(c1)C(C)=CC(C)(C)N2")
0.99
>>> recorded_result("COC(=O)c1ccc(C#Cc2ccccc2)o1")
0.927
>>> recorded_result("COc1ccc(/C=C/C(=O)O)cc1OC")
1.02
>>> recorded_result("NC(=O)c1cnccn1")
1.02
>>> recorded_result("CCOC(=O)c1c(C)n(-c2ccccc2)c2ccc(O)cc12")
0.99

Task item: Query: normalized growth; subject: "COc1ccc(CN(Cc2ccc(OC)cc2)C(=O)c2cccs2)cc1"
Reply: 0.973

Task item: What do you get for CC[C@@]1(C2O[C@@H](C3O[C@@](O)(CC)[C@H](C)C[C@@H]3C)C[C@@H]2C)CC[C@H]([C@]2(C)CCC3(C[C@H](O)[C@@H](C)[C@@H]([C@H](C)[C@@H](OC)[C@H](C)C(=O)O)O3)O2)O1 (stereo partly drawn) ?
Reply: 0.956

Task item: What do you get for "CCn1cc(C(=O)O)c(=O)c2cnc(N3CCNCC3)nc21" ?
Reply: 0.977

----------
assay: chemical genetic growth profiling, strain panel (AID 1159580); settings: S. cerevisiae deletion strains, growth OD, locus YEL037C, strain rad23, active compounds read low
Out of some 5,500 compounds screened, about 2,000 (36%) were called active. About 18% were inconclusive and are not listed. The list shows a part of the results.
normalized growth by entry:
Lab note: record the figure alone, no unit after it.

>>> recorded_result("CC1(C)C2CC(=O)O[C@@]3(C)C4=CC(=O)O[C@@H](c5ccoc5)[C@]4(C)CCC3[C@@]2(C)C=C[C@H]1O (some centres undefined)")
0.984
>>> recorded_result("OC/C=C/c1ccc(O)c(O)c1")
1
>>> recorded_result("CC12CCCC(O)(C1)C1CC(C)(C)C1CC2 (centres undefined)")
1
>>> recorded_result("COP(=S)(OC)Oc1ccc(SC)c(C)c1")
1
>>> recorded_result("COc1cc(/C=C/C(=O)O)cc(OC)c1OC")
0.984

Task item: Query: normalized growth; subject: "Oc1ccc(/C=C/c2cc(O)cc(O)c2)cc1"
Reply: 1.01

Task item: What do you get for "CCOc1ccc2c(c1)C(C)=CC(C)(C)N2" ?
Reply: 0.984

Task item: What do you get for OC1CCCCC1N1CCC(c2ccccc2)CC1 (centres undefined) ?
Reply: 0.99

Task item: What do you get for "COc1ccc(C=CC(=O)c2ccc(O)cc2O)cc1OC" ?
Reply: 0.983

----------
normalized growth by entry:
experiment: chemical genetic growth profiling, strain panel (AID 1159580); conditions: S. cerevisiae deletion strains, growth OD, locus YLR039C, strain RIC1, active compounds read low
Out of some 5,500 compounds screened, about 2,000 (36%) were called active. Inconclusive results (about 18%) are left out. The list shows a part of the results.
Lab note: record the figure alone, no unit after it.

Below, 8 molecules whose answers are already recorded.
>>> recorded_result("O=C(O)CCCCCCCCCCCCC1C=CCC1 (stereo not given)")
0.422
>>> recorded_result("CCOC(N)=O")
1.01
>>> recorded_result("CCOc1ccc2c(c1)C(C)=CC(C)(C)N2")
0.997
>>> recorded_result("CC1CC2C(C(O)CC3(C)C2CCC3(O)C(=O)COC(=O)CCC(=O)O)C2(C)C=CC(=O)C=C12 (stereo not given)")
1.03
>>> recorded_result("Cc1ccc(Cl)cc1NC(=S)NCCO")
1.02
>>> recorded_result("CN1CCc2cccc3c2C1Cc1ccc(O)c(O)c1-3 (stereo not given)")
1.04
>>> recorded_result("COc1cc2c(cc1O)CC1c3c(cc(O)c(OC)c3-2)CCN1C (stereo not given)")
1.01
>>> recorded_result("C[C@](N)(Cc1ccc(O)c(O)c1)C(=O)O")
0.975

Kindly consider the entry below.
Task item: Query: normalized growth; subject: CCN(CC)CCOC(=O)C(Cc1cccc2ccccc12)CC1CCCO1 (stereo not given)
Reply: 1.11

----------
test: chemical genetic growth profiling, strain panel (AID 1159580);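 also: tested at 20 µM; growth read once vehicle control cultures reached saturation at 30 °C; 1 = growth at the plate median or of vehicle wells; lower values mean less growth of the strain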; settings: S. cerevisiae deletion strains, growth OD, locus YDR477W, strain SNF1
Hit rate of the full screen: of about 5,500 compounds, about 2,000 (36%) were called active. Not shown: some 18% with an inconclusive outcome. No stated cut-off is given here; in the data, active means normalized growth mostly below about 0.91 (no sharp cut-off); inconclusive means no clear call, values can overlap the other calls; inactive means mostly above about 0.92. Some of the results follow.
Choose the fitting class; nothing outside Yes for active, No for inactive is accepted.

>>> group("CC(C)(O)C#Cc1ccc(/C=N\\Nc2ccccc2)cc1")
"No"

Task item: For O=C(NCc1ccco1)c1csc(C2COc3ccccc3O2)n1 (configuration not stated) , which call appears in the assay record?
Reply: No

Task item: What do you get for "Cc1cc(C(=O)O/N=C(/N)c2ccc([N+](=O)[O-])o2)no1" ?
Reply: No

Task item: What do you get for "CC(C)(O)C#Cc1ccc(/C=N\Nc2c(Cl)cc(Cl)cc2Cl)cc1" ?
Reply: No

Task item: What do you get for "N=C(N)SCc1nc(-c2ccc(Cl)cc2)no1" ?
Reply: No

Task item: What do you get for "O=C(Nc1cccc(C(F)(F)F)c1)Oc1ccc(F)cc1Cl" ?
Reply: No

Task item: What do you get for "CCOC(=O)CCc1cc(N=Cc2cc(Br)ccc2O)c(O)c(N=Cc2cc(Br)ccc2O)c1" ?
Reply: No

----------
experiment: chemical genetic growth profiling, strain panel (AID 1159580);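 also: tested at 20 µM; growth read once vehicle control cultures reached saturation at 30 °C; 1 = growth at the plate median or of vehicle wells; lower values mean less growth of the strain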; details: S. cerevisiae deletion strains, growth OD, locus YNL067W, strain RPL9B, active compounds read low
Out of some 5,500 compounds screened, about 2,000 (36%) were called active. Inconclusive results (about 18%) are left out. The list shows a part of the results.
reported.metric: normalized growth
Lab note: record the figure alone, no unit after it.

Below, 2 compounds whose answers are already recorded.
>>> recorded_result("C=CCc1cc(OC)c2c(c1OC)OCO2")
0.921
>>> recorded_result("O=C(O)c1cc(=O)c2c(OCC(O)COc3cccc4oc(C(=O)O)cc(=O)c34)cccc2o1")
1.01

Task item: Query: normalized growth; subject: CN(Cc1cnc2nc(N)nc(N)c2n1)c1ccc(C(=O)NC(CCC(=O)O)C(=O)O)cc1 (stereo not drawn)
Reply: 0.963

----------
normalized growth by entry:
experiment: chemical genetic growth profiling, strain panel (AID 1159580);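 also: tested at 20 µM; growth read once vehicle control cultures reached saturation at 30 °C; 1 = growth at the plate median or of vehicle wells; lower values mean less growth of the strain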; details: S. cerevisiae deletion strains, growth OD, locus YJL187C, strain SWE1 (second series), active compounds read low
Out of some 5,500 compounds screened, about 2,000 (36%) were called active. Not shown: some 18% with an inconclusive outcome. Some of the results follow.
Lab note: record the figure alone, no unit after it.

>>> recorded_result("CO[C@@H]1C[C@@H](C[C@H]2CC[C@H](C)[C@H]([C@@H](C)C(=O)O)O2)O[C@]2(O[C@](C)([C@H]3CC[C@@](C)(C4O[C@@H](C5O[C@@](O)(CO)[C@H](C)C[C@@H]5C)C[C@@H]4C)O3)C[C@H]2C)[C@@H]1C (some centres undefined)")
1.01
>>> recorded_result("COC(=O)[C@H]1[C@H]2C[C@@H]3c4[nH]c5cc(OC)ccc5c4CCN3C[C@H]2C[C@@H](OC(=O)c2cc(OC)c(OC)c(OC)c2)[C@@H]1OC")
0.999
>>> recorded_result("O=C(O)CNCP(=O)(O)O")
1.01
>>> recorded_result("O=C1O[C@@H](CO)[C@H](O)[C@@H](O)[C@@H]1O")
0.989
>>> recorded_result("OCC(S)CS (centres undefined)")
0.973

Task item: Query: normalized growth; subject: CC[C@@]1(C2O[C@@H](C3O[C@@](O)(CC)[C@H](C)C[C@@H]3C)C[C@@H]2C)CC[C@H]([C@]2(C)CCC3(C[C@H](O)[C@@H](C)[C@@H]([C@H](C)[C@@H](OC)[C@H](C)C(=O)O)O3)O2)O1 (some centres undefined)
Reply: 0.98
